# System Tested: UniProt A0A024AXB9
# Sequence (A0A024AXB9 whole entry): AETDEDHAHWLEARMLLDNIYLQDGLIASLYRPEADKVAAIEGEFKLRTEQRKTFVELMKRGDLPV
# Protocol Text: Functional biochemical assay to identify treatments for viral infectious disease that targets Zika NS2B-NS3 protease. Utilizing a direct enzyme activity measurement method, reading the fluorescence intensity is used to characterize the relative potency of inhibitors as IC50.
# Set-up: species or system PRVABC59
Value Type: IC50

>>> result("O=C(Nc1cc(Cl)cc(C(=O)Nc2cnc3n2CCNC3)c1)OCc1ccccc1")
"> 99.5 µM"
>>> result("CCNC(=O)Nc1cc(Cl)cc(C(=O)Nc2cc(C)cc(CN)c2)c1")
"0.676 µM"
>>> result("O=C(Nc1cc(Cl)cc(C(=O)Nc2ccnc([C@H]3CCCN3)n2)c1)OCc1ccccc1")
"82.6 µM"
>>> result("COc1ccc(C)cc1S(=O)(=O)N[C@@H](C(=O)Nc1cccc(CN)c1)c1ccc(OCc2ccccc2)cc1")
"54.6 µM"
>>> result("CS(=O)(=O)c1ccc(N2CCNCC2)cc1NC(=O)c1cccc2ncccc12")
"> 99.5 µM"
